Measured koff of individual entries
# Study target: T1, human IL-21R extracellular domain His-Flag fusion protein (human, UniProt Q9HBE5 20-232)
# T1 construct: Biotinylated in the HTRF screen; also called hIL-21R-H/F; human IL-21R-H/F
# T1 sequence (Q9HBE5 20-232): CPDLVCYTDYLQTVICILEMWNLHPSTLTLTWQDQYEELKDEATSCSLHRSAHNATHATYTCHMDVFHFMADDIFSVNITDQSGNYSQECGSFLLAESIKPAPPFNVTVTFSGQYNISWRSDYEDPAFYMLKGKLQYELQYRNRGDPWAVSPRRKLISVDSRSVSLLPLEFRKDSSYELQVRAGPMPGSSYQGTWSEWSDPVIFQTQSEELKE
# Experimental details: SPR, Ab captured on anti-human IgG, replicate experiment

>  <Binder>
AbU (antibody, human IgG1, V domains shown, CDR3 graft, residue limits derived as for m29; also called VHP/VL25; VHPTM/VL25) VH: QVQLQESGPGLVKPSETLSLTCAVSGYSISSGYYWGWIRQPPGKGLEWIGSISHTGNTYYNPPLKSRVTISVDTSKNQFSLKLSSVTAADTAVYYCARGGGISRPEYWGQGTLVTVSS VL: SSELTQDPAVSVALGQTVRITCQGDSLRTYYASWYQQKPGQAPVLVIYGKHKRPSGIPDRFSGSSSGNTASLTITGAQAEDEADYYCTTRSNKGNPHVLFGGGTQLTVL

>  <koff>
7.83e-05 s⁻¹

$$$$
>  <Binder>
AbQ (antibody, human IgG1, V domains shown, CDR3 graft, residue limits derived as for m29; also called VH3/VL2; VH3DM/VL2) VH: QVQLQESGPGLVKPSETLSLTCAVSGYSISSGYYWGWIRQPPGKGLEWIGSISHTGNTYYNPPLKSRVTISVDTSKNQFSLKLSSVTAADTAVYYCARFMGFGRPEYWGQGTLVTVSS VL: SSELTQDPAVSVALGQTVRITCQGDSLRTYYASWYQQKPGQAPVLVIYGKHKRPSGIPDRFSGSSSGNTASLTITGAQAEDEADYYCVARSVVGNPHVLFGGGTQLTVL

>  <koff>
9.34e-05 s⁻¹

$$$$
>  <Binder>
AbR (antibody, human IgG1, V domains shown, CDR3 graft, residue limits derived as for m29; also called VH3/VL18; VH3DM/VL18) VH: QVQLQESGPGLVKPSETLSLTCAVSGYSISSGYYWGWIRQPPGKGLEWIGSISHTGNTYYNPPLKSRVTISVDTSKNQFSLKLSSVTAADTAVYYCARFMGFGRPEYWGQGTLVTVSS VL: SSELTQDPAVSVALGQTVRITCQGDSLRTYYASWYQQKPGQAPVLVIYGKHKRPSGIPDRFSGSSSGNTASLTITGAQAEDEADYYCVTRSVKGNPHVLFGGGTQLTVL

>  <koff>
9.76e-05 s⁻¹

$$$$
